Below, each of the molecules is paired with its reported hERG current change (%, negative = inhibition) at 10uM value.
- experimentalSystem: human ether-à-go-go-related gene (hERG) potassium channel (human, UniProt Q12809)
- Sequence (Q12809 whole entry, looked up): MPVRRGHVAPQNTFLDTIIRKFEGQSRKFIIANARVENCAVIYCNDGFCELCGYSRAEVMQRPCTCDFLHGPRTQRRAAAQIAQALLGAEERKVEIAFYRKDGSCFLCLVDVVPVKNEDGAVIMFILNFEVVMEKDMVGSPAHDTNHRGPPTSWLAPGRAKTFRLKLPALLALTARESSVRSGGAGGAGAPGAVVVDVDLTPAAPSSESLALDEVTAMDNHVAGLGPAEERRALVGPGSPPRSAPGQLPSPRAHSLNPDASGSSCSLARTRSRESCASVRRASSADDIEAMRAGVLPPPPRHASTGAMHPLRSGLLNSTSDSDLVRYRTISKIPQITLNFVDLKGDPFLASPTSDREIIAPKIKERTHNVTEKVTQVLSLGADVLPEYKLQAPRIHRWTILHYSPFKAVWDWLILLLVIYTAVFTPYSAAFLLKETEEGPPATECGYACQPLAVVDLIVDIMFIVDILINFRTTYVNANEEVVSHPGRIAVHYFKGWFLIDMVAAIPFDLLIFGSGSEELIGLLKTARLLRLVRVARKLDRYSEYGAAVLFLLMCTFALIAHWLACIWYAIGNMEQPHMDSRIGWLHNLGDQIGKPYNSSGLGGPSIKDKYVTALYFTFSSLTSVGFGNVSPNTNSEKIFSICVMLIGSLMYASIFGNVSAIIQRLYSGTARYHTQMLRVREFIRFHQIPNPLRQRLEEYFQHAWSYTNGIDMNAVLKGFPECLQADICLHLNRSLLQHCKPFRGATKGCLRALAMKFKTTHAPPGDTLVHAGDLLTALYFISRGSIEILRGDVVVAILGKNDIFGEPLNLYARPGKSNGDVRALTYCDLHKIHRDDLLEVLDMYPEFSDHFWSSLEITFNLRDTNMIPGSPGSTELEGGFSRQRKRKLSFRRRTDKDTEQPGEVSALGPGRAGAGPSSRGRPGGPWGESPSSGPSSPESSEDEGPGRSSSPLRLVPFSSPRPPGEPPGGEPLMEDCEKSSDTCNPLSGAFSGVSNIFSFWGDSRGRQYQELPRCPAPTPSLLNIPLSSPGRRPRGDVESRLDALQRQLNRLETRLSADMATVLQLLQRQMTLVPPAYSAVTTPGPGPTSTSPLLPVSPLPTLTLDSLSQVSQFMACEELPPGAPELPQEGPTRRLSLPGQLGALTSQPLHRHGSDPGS
- method: primary screen, population patch clamp on CHO cells stably expressing hERG; higher = less effect of the substance
The whole screen tested about 310,000 compounds, of which about 14,000 (4.5%) showed an effect of 50% or more. The effect is printed as a negative number. For the sample, strong results were picked, then their nearest neighbours and some compounds at random.
Hey, just the number and the unit after it is fine.

recordSmiles	result
Cc1nc([N+](=O)[O-])c(NCCO)n1Cc1ccccc1	8.23%
O=C(NCCS(=O)(=O)N1CCN(c2cccc(Cl)c2)CC1)c1ccco1	-73.8%
CC(C)[C@H](NC(=O)c1ccco1)C(=O)OCC(=O)NC12CC3CC(CC(C3)C1)C2	-18.7%

What the record says about O=C(NCCS(=O)(=O)N1CCN(c2ccccc2)CC1)C1CC1 : hERG current change (%, negative = inhibition) at 10uM is 3.93%

// field: hERG current change (%, negative = inhibition) at 10uM; key: O=C(Cc1ccc(F)cc1)NCCS(=O)(=O)N1CCN(c2cccc(Cl)c2)CC1 ; value = -16.2%

* * *

- experimentalSystem: human ether-à-go-go-related gene (hERG) potassium channel (human, UniProt Q12809)
- method: primary screen, population patch clamp on CHO cells stably expressing hERG; higher = less effect of the substance
The campaign covered roughly 310,000 compounds. About 14,000 (4.5%) showed an effect of 50% or more. Effects have a minus sign here. Only a selection was taken, and strong results are over-represented in it overall.
valueKind: hERG current change (%, negative = inhibition) at 10uM (%)
// units = %; emit number, no label

Use these answered entries as a reference point.
recordSmiles	quantitativeResult
COc1ccccc1NC(=O)CN1CCN(CC(=O)Nc2ccc(C)c(F)c2)CC1	-70
CCCCNC(=O)Nc1ccc(Br)cn1	-16.2
Cn1c(=O)[nH]c(=O)c2c1nc(N1CCN(Cc3ccccc3)CC1)n2CCSc1ncccn1	-25.7
COc1ccc(/C=N/n2cnc3c([nH]c4ccc(Br)cc43)c2=O)cc1CN1CCOCC1	-8.88
COc1ccc2[nH]c3c(=O)n(/N=C/c4ccc(OC)c(CN5CCCC5)c4)c(C)nc3c2c1	-45.3

Please fill in: hERG current change (%, negative = inhibition) at 10uM reported for Cn1c(=O)[nH]c(=O)c2c1nc(CN1CCN(Cc3ccccc3)CC1)n2CC(N)=O = 7.32

Measured hERG current change (%, negative = inhibition) at 10uM, CCCNC(=O)c1nn2cc(Br)cnc2c1Br : -69.2

Record CCCCNC(=O)c1nc2ncc(Br)cn2n1 . Reported hERG current change (%, negative = inhibition) at 10uM: -21

compound COc1ccccc1NC(=O)CN1CCN(CC(=O)Nc2ccc(F)cc2)CC1 , hERG current change (%, negative = inhibition) at 10uM observed: -79.2

Record Cc1cccc(Cn2c(CN3CCN(Cc4ccccc4)CC3)nc3c2c(=O)[nH]c(=O)n3C)c1 . Reported hERG current change (%, negative = inhibition) at 10uM: -64.9

The measured hERG current change (%, negative = inhibition) at 10uM associated with CCCCCn1c(CN2CCN(Cc3ccccc3)CC2)nc2c1c(=O)[nH]c(=O)n2C reads -72.3

Reported hERG current change (%, negative = inhibition) at 10uM of Cn1c(=O)[nH]c(=O)c2c1nc(N1CCN(Cc3ccccc3)CC1)n2CCCc1ccccc1 : -31.9

* * *

- experimentalSystem: human ether-à-go-go-related gene (hERG) potassium channel (human, UniProt Q12809)
- method: primary screen, population patch clamp on CHO cells stably expressing hERG; higher = less effect of the substance
About 14,000 (4.5%) of roughly 310,000 compounds showed an effect of 50% or more. The effect is printed as a negative number. This is one part of a sample in which strong results are shown more often than they occur.
List of hERG current change (%, negative = inhibition) at 10uM values.
Give a bare numeral; the unit % is implied.

molecule	quantitativeResult
Cc1ccc(Cn2c(=N)c(C(=O)NCC3CCCO3)cc3c(=O)n4cccc(C)c4nc32)cc1 (stereo not drawn)	-81.5

Kindly review the next molecule as well.
get_value(item= O=C(O)c1cc(=O)c2ccccc2[nH]1 , readout=hERG current change (%, negative = inhibition) at 10uM) returns 8.86

* * *

- experimentalSystem: human ether-à-go-go-related gene (hERG) potassium channel (human, UniProt Q12809);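 note: peak tail current of the secondary pulse compared with the same well before compound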
- method: primary screen, population patch clamp on CHO cells stably expressing hERG; higher = less effect of the substance
About 14,000 (4.5%) of roughly 310,000 compounds showed an effect of 50% or more. Effects have a minus sign here. What follows is part of a selection rich in strong results, with near analogues and random picks from the rest.
The entries below come with measured hERG current change (%, negative = inhibition) at 10uM values attached.
Just the number in %, nothing appended.

Previously resolved entries follow.
compound	unitOfMeasure	quantitativeResult
O=[N+]([O-])c1ccc(-c2cc(-c3ccc(Cl)cc3)n[nH]2)cc1	%	-4.49
CS(=O)(=O)n1nc(-c2cccnc2)nc1NCc1ccccc1	%	43.9
O=C(CCO)c1ccc(O)cc1	%	10.6
Cc1ccc(-n2nc3c(N4CCC(C(=O)N5CCC(C(N)=O)CC5)CC4)nnc(C)c3c2C)cc1	%	12

Lab note: next compound to report on.
Value of measured hERG current change (%, negative = inhibition) at 10uM for the entry COC(=O)CN(C(=S)Nc1ccccc1)C1CC(=O)N(c2ccc(OC)cc2)C1=O (centres unmarked) : -6.5

* * *

- experimentalSystem: human ether-à-go-go-related gene (hERG) potassium channel (human);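 note: peak tail current of the secondary pulse compared with the same well before compound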
- method: primary screen, population patch clamp on CHO cells stably expressing hERG; higher = less effect of the substance
The campaign covered roughly 310,000 compounds. About 14,000 (4.5%) showed an effect of 50% or more. Effects have a minus sign here. The list comes from a sample in which strong results are over-represented; it also holds close analogues and randomly drawn compounds.
Lab note: compare hERG current change (%, negative = inhibition) at 10uM against -10%. Equal or greater, write class 1. Smaller, write class 0.

compound	assignedCategory
Cc1cccc2cc(COC(=O)c3ccccc3)c(=O)[nH]c12	class 1

Please examine the following record next.
In: hey, is hERG current change (%, negative = inhibition) at 10uM for this one >= -10%? Cc1cccc(CCNCc2cc3cccc(C)c3[nH]c2=O)c1
Out: class 0

* * *

In this section we review reported hERG current change (%, negative = inhibition) at 10uM values for a set of compounds.
- experimentalSystem: human ether-à-go-go-related gene (hERG) potassium channel (human);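 note: peak tail current of the secondary pulse compared with the same well before compound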
- method: primary screen, population patch clamp on CHO cells stably expressing hERG; higher = less effect of the substance
In all, about 310,000 compounds went through this assay and about 14,000 (4.5%) showed an effect of 50% or more. Effects have a minus sign here. Shown is part of a subset that was picked to be rich in strong results.
Give the value in % but do not write % after it.

# count of solved cases: 2
compound	quantitativeResult
CC1CCCC(C)N1CC(O)COCC1COc2ccccc2O1.Cl (stereo not shown)	-15.8
Cc1cc(C)nc(NC(=O)Cc2ccc([N+](=O)[O-])cc2)c1	-67.9

Please turn your attention to the following entry.
Quick note, hERG current change (%, negative = inhibition) at 10uM for COc1cccc(NC(=S)N(Cc2ccc(Cl)cc2)Cc2ccc(C(=O)O)cc2)c1 landed at 25.6

* * *

- experimentalSystem: human ether-à-go-go-related gene (hERG) potassium channel (human);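 note: peak tail current of the secondary pulse compared with the same well before compound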
- method: primary screen, population patch clamp on CHO cells stably expressing hERG; higher = less effect of the substance
About 14,000 (4.5%) of roughly 310,000 compounds showed an effect of 50% or more. Effects have a minus sign here. Many of the other results were omitted from the sample, so strong results are more common in it than they were.
valueKind: hERG current change (%, negative = inhibition) at 10uM (%)
Provide only the numeric value, understood in %.

As a guide, the following entries are already answered.
compound	experimentalSystem	unitOfMeasure	quantitativeResult
CCOc1ccc(NC(=S)Nc2ccc(OCc3ccccc3)cc2)cc1	human ether-à-go-go-related gene (hERG) potassium channel (human)	%	4.64
CN1CCN(c2ccc(NC(=O)c3cc4ccccc4o3)cc2)CC1	human ether-à-go-go-related gene (hERG) potassium channel (human)	%	-72.3
CS(=O)(=O)N1CCN(c2ccc(NC(=O)c3ccc(-c4ccc(Cl)cc4)o3)cc2)CC1	human ether-à-go-go-related gene (hERG) potassium channel (human)	%	-10.6
CN1CCN(c2ccc(NC(=O)c3ccc(-c4ccc(Br)cc4)o3)cc2)CC1	human ether-à-go-go-related gene (hERG) potassium channel (human)	%	0.645
O=C(Nc1ccc(N2CCOCC2)cc1)c1ccc(-c2ccccc2[N+](=O)[O-])o1	human ether-à-go-go-related gene (hERG) potassium channel (human)	%	15.9
CC(=O)N1CCN(c2ccc(NC(=O)c3cc4ccccc4o3)cc2)CC1	human ether-à-go-go-related gene (hERG) potassium channel (human)	%	-24.5

The compound identified as CN1CCN(c2ccc(NC(=O)c3ccc(-c4ccccc4F)o3)cc2)CC1 registered its hERG current change (%, negative = inhibition) at 10uM at -70

Measured hERG current change (%, negative = inhibition) at 10uM of COc1ccc(N2CCC(CNC(=S)Nc3c(C)cccc3C)C2)cc1 (stereo not shown) : -4.72

Reported hERG current change (%, negative = inhibition) at 10uM of O=C(Nc1ccc(N2CCCC2)cc1)c1cc2ccccc2o1 : 20.4

Entry CCOc1ccc(NC(=S)NCCCN2CCOCC2)cc1 , hERG current change (%, negative = inhibition) at 10uM reported as 10.7

Taken from paper PMC4336329.
